# credit: paper PMC4929566

experiment: Metabolite profiling and quantification in urine (HPLC-MS2 with on-line radioactivity detector); type: in vivo, humans; details: human, oral 207 μmol 14C-EC, mean ± SEM n=8; – = not detected
measure: Metabolite present in urine, collection period 0–4 h (μ mol)
Express it in μ mol; write the number only.

Observe how each entry below is paired with its result.
compound | data.value
COc1ccc([C@H]2Oc3cc(OS(=O)(=O)O)cc(O)c3C[C@H]2O)cc1O [4′-O-Methyl-(−)-epicatechin-7-sulfate] | 0.3
COc1ccc([C@H]2Oc3cc(O)cc(OS(=O)(=O)O)c3C[C@H]2O)cc1O [4′-O-Methyl-(−)-epicatechin-5-sulfate] | 1.0
O=C(O)CNC(=O)c1ccccc1 | 0.6
COc1cc([C@H]2Oc3cc(O)cc(O)c3C[C@H]2O)ccc1OS(=O)(=O)O [3′-O-Methyl-(−)-epicatechin-4′-sulfate] | 0.7
O=C(O)[C@H]1O[C@@H](Oc2cc([C@H]3Oc4cc(O)cc(O)c4C[C@H]3O)ccc2O)[C@H](O)[C@@H](O)[C@@H]1O [(−)-Epicatechin-3′-O-glucuronide, (−)-epicatechin-3′-O-β-D-glucuronide] | 8.0

Would you mind telling me what Metabolite present in urine, collection period 0–4 h value was observed for O=S(=O)(O)Oc1cc([C@H]2Oc3cc(O)cc(O)c3C[C@H]2O)ccc1O [(−)-Epicatechin-3′-sulfate, (−)-epicatechin-3′-sulfate] ?
6.0

Would you mind telling me what Metabolite present in urine, collection period 0–4 h value was observed for O=C1CCC(Cc2ccc(O)c(OS(=O)(=O)O)c2)O1 (centres unmarked) ?
3.6

Would you mind telling me what Metabolite present in urine, collection period 0–4 h value was observed for COc1cc([C@H]2Oc3cc(OS(=O)(=O)O)cc(O)c3C[C@H]2O)ccc1O [3′-O-Methyl-(−)-epicatechin-7-sulfate, 3′-O-methyl-(−)-epicatechin-7-sulfate] ?
0.9

---

assay: Metabolite profiling and quantification in urine (HPLC-MS2 with on-line radioactivity detector); type: in vivo, humans; settings: human, oral 207 μmol 14C-EC, mean ± SEM n=8; – = not detected
In plain terms, low Metabolite present in urine, collection period 12–24 h, meaning strictly below 0.7 μ mol, gives Satisfied, and everything else gives Not satisfied.

compound | category
O=S(=O)(O)Oc1cc([C@H]2Oc3cc(O)cc(O)c3C[C@H]2O)ccc1O [(−)-Epicatechin-3′-sulfate, (−)-epicatechin-3′-sulfate] | Satisfied
O=C(O)CCC(O)Cc1ccc(O[C@@H]2O[C@H](C(=O)O)[C@@H](O)[C@H](O)[C@H]2O)c(O)c1 (some centres unmarked) | Satisfied
O=C(O)CNC(=O)c1cccc(O)c1 [3′-Hydroxyhippuric acid] | Not satisfied

Proceed to the following item.
Here's an entry: O=C(O)[C@H]1O[C@@H](Oc2cc([C@H]3Oc4cc(O)cc(O)c4C[C@H]3O)ccc2O)[C@H](O)[C@@H](O)[C@@H]1O [(−)-Epicatechin-3′-O-glucuronide, (−)-epicatechin-3′-O-β-D-glucuronide] . Is its Metabolite present in urine, collection period 12–24 h below 0.7 μ mol?
Not satisfied

---

assay: Metabolite profiling and pharmacokinetics in plasma (targeted HPLC-MS2); assay type: in vivo, humans; conditions: male; human plasma, oral 60 mg 14C-EC; read-out: Plasma concentration 24 h after ingestion
measure: concentration at 24 h

Would you mind telling me what concentration at 24 h value was observed for O=C1CCC(Cc2ccc(O)c(OS(=O)(=O)O)c2)O1 (stereo not shown) ?
~50 nM

---

experiment: Metabolite profiling and pharmacokinetics in plasma (targeted HPLC-MS2); format: in vivo, humans; conditions: male; human plasma, oral 60 mg 14C-EC, mean ± SEM n=8; read-out: T1/2 (elimination half-life) (converted)
In this section we review reported half-life values for a set of compounds.
Express it in h; write the number only.

Would you mind telling me what half-life value was observed for O=C(O)[C@H]1O[C@@H](Oc2cc([C@H]3Oc4cc(O)cc(O)c4C[C@H]3O)ccc2O)[C@H](O)[C@@H](O)[C@@H]1O [(−)-Epicatechin-3′-O-glucuronide, (−)-epicatechin-3′-O-β-D-glucuronide] ?
2

Would you mind telling me what half-life value was observed for O=C1CCC(Cc2ccc(O)c(OS(=O)(=O)O)c2)O1 (centres unmarked) ?
6.3

---

assay: Metabolite profiling and quantification in urine (HPLC-MS2 with on-line radioactivity detector); format: in vivo, humans; conditions: human, oral 207 μmol 14C-EC, mean ± SEM n=8; – = not detected
In this section we review reported Metabolite present in urine, collection period 4–8 h values for a set of compounds.
Please don't drop the unit; write it after the number.

compound | data.value
O=C(O)CNC(=O)c1ccccc1 [Hippuric acid] | 7.2 ± 3.9 μ mol

Would you mind telling me what Metabolite present in urine, collection period 4–8 h value was observed for O=C(O)CNC(=O)c1cccc(O)c1 [3′-Hydroxyhippuric acid] ?
1.6 ± 0.5 μ mol

Would you mind telling me what Metabolite present in urine, collection period 4–8 h value was observed for O=C1CCC(Cc2cccc(OS(=O)(=O)O)c2)O1 (centres unmarked) [5-(Phenyl)-γ-valerolactone-3′-sulfate] ?
2.4 ± 1.1 μ mol

Would you mind telling me what Metabolite present in urine, collection period 4–8 h value was observed for O=C1CCC(Cc2ccc(O)c(OS(=O)(=O)O)c2)O1 (centres unmarked) ?
16.0 ± 3.0 μ mol

Would you mind telling me what Metabolite present in urine, collection period 4–8 h value was observed for COc1cc([C@H]2Oc3cc(O)cc(OS(=O)(=O)O)c3C[C@H]2O)ccc1O [3′-O-Methyl-(−)-epicatechin-5-sulfate, 3′-O-methyl-(−)-epicatechin-5-sulfate] ?
1.8 ± 0.3 μ mol

Would you mind telling me what Metabolite present in urine, collection period 4–8 h value was observed for O=C(O)[C@H]1O[C@@H](Oc2cc([C@H]3Oc4cc(O)cc(O)c4C[C@H]3O)ccc2O)[C@H](O)[C@@H](O)[C@@H]1O [(−)-Epicatechin-3′-O-glucuronide, (−)-epicatechin-3′-O-β-D-glucuronide] ?
5.7 ± 1.3 μ mol

Would you mind telling me what Metabolite present in urine, collection period 4–8 h value was observed for COc1ccc([C@H]2Oc3cc(OS(=O)(=O)O)cc(O)c3C[C@H]2O)cc1O [4′-O-Methyl-(−)-epicatechin-7-sulfate] ?
0.1 ± 0.1 μ mol

Would you mind telling me what Metabolite present in urine, collection period 4–8 h value was observed for O=C(O)CCC(O)Cc1cccc(OS(=O)(=O)O)c1 (centres unmarked) ?
1.9 ± 1.0 μ mol

---

experiment: Metabolite profiling and pharmacokinetics in plasma (targeted HPLC-MS2); format: in vivo, humans; conditions: human plasma, oral 60 mg 14C-EC, mean ± SEM n=8
In this section we review reported T1/2 (elimination half-life) values for a set of molecules.
Express it in h; write the number only.

Observe how each entry below is paired with its result.
molecule | T1/2 (elimination half-life), h
COc1cc([C@H]2Oc3cc(O)cc(O[C@@H]4O[C@H](C(=O)O)[C@@H](O)[C@H](O)[C@H]4O)c3C[C@H]2O)ccc1O | 1.3
O=C(O)[C@H]1O[C@@H](Oc2cc(O)c3c(c2)O[C@H](c2ccc(O)c(O)c2)[C@H](O)C3)[C@H](O)[C@@H](O)[C@@H]1O [(−)-Epicatechin-7-O-glucuronide, (−)-epicatechin-7-O-β-D-glucuronide] | 1.7

Would you mind telling me what T1/2 (elimination half-life) value was observed for O=S(=O)(O)Oc1cc(O)cc2c1C[C@@H](O)[C@@H](c1ccc(O)c(O)c1)O2 [(−)-Epicatechin-5-sulfate] ?
1.9

Would you mind telling me what T1/2 (elimination half-life) value was observed for O=C(O)CCC(O)Cc1ccc(O[C@@H]2O[C@H](C(=O)O)[C@@H](O)[C@H](O)[C@H]2O)c(O)c1 (some centres unmarked) ?
6.5

Would you mind telling me what T1/2 (elimination half-life) value was observed for COc1cc([C@H]2Oc3cc(O[C@@H]4O[C@H](C(=O)O)[C@@H](O)[C@H](O)[C@H]4O)cc(O)c3C[C@H]2O)ccc1O ?
1.3

Would you mind telling me what T1/2 (elimination half-life) value was observed for COc1ccc([C@H]2Oc3cc(OS(=O)(=O)O)cc(O)c3C[C@H]2O)cc1O [4′-O-Methyl-(−)-epicatechin-7-sulfate] ?
2.6

Would you mind telling me what T1/2 (elimination half-life) value was observed for COc1cc([C@H]2Oc3cc(O)cc(O)c3C[C@H]2O)ccc1OS(=O)(=O)O [3′-O-Methyl-(−)-epicatechin-4′-sulfate] ?
2.3

Would you mind telling me what T1/2 (elimination half-life) value was observed for O=C1CCC(Cc2ccc(O[C@@H]3O[C@H](C(=O)O)[C@@H](O)[C@H](O)[C@H]3O)c(O)c2)O1 (some centres unmarked) ?
4.4

---

test: Metabolite profiling and pharmacokinetics in plasma (targeted HPLC-MS2); format: in vivo, humans; details: male; human plasma, oral 60 mg 14C-EC, mean ± SEM n=8; read-out: T1/2 (elimination half-life) (converted)
In this section we review reported half-life values for a set of molecules.

Observe how each entry below is paired with its result.
molecule | half-life
O=S(=O)(O)Oc1cc([C@H]2Oc3cc(O)cc(O)c3C[C@H]2O)ccc1O [(−)-Epicatechin-3′-sulfate, (−)-epicatechin-3′-sulfate] | 2 h
O=C1CCC(Cc2ccc(O)c(O[C@@H]3O[C@H](C(=O)O)[C@@H](O)[C@H](O)[C@H]3O)c2)O1 (stereo partly drawn) | 3.1 h

Now look at this one.
Would you mind telling me what half-life value was observed for COc1cc([C@H]2Oc3cc(O)cc(OS(=O)(=O)O)c3C[C@H]2O)ccc1O [3′-O-Methyl-(−)-epicatechin-5-sulfate, 3′-O-methyl-(−)-epicatechin-5-sulfate] ?
1.6 h
